Target protein (sequence): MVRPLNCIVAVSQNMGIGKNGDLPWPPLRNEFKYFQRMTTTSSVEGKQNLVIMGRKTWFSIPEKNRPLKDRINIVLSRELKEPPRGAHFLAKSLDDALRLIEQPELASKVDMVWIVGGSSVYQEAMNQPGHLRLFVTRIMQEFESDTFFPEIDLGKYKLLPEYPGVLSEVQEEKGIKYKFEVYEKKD
Across several studies, molecules have been characterized by their Ki on the protein given by its sequence; a selection follows.
The figure you give is taken to be in nM; do not add the unit.

**Q:** Any idea what Ki was measured for CCCCC(Cc1coc2nc(N)nc(N)c12)c1ccccc1OC (racemic) ?
**A:** 3300

**Q:** Would you kindly repeat that for C[C@H](Cc1cnc2nc(N)nc(N)c2n1)c1ccc(C(=O)N[C@@H](CCC(=O)O)C(=O)O)cc1 (stereo in doubt; l-L-15a) ?
**A:** 0.00317

**Q:** Would you kindly repeat that for COc1ccccc1C(Cc1coc2nc(N)nc(N)c12)CC(C)C (racemic) ?
**A:** 620

**Q:** Would you kindly repeat that for CCC(Cc1cnc2nc(N)nc(N)c2c1)c1ccc(C(=O)NC(CCC(=O)O)C(=O)O)cc1 (centres undefined) ?
**A:** 0.013
